Cited source for all entries: paper PMC6222718

system: 518A2 (melanoma); experiment: SRB cytotoxicity assay, 518A2; type: cell-based, human; conditions: SI = EC50 (NIH 3T3)/EC50 (518A2)
Overview of recorded Selectivity index (SI) 518A2 for various compounds
Kindly provide the number alone.

COMPOUND	Selectivity index (SI) 518A2
C=C(C)C1CC[C@]2(C(=O)NCCN3CCNCC3)CC[C@]3(C)C(CCC4[C@@]5(C)CC[C@H](OC(C)=O)C(C)(C)C5CC[C@]43C)C12 (some centres unmarked) [Compound 21]	0.40

### Prompt Which Selectivity index (SI) 518A2 value belongs to CC(=O)O[C@H]1CC[C@@]2(C)C(CC[C@]3(C)C2CC=C2C4[C@@H](C)[C@H](C)CC[C@]4(C(=O)NCCN4CCNCC4)CC[C@]23C)C1(C)C (some centres unmarked) [Compound 7] ?
### Response 0.69

### Prompt Requested field: Selectivity index (SI) 518A2. Item: C=C(C)C1CC[C@]2(C(=O)NCCN)CC[C@]3(C)C(CCC4[C@@]5(C)CC[C@H](OC(C)=O)C(C)(C)C5CC[C@]43C)C12 (some centres unmarked) [Compound 17]
### Response 0.88

### Prompt State the recorded Selectivity index (SI) 518A2 for this entry: CC(=O)O[C@H]1CC[C@@]2(C)C(CC[C@]3(C)C2CC=C2C4[C@@H](C)[C@H](C)CC[C@]4(C(=O)NCCN(C)C)CC[C@]23C)C1(C)C (some centres unmarked) [Compound 4]
### Response 0.70

### Prompt What value of Selectivity index (SI) 518A2 has been reported for the following compound? C[C@@H]1CC[C@]2(C(=O)NCCN3CCNCC3)CC[C@]3(C)C(=CCC4[C@@]5(C)CC[C@H](O)C(C)(C)C5CC[C@]43C)C2[C@H]1C (some centres unmarked) [Compound 14]
### Response 0.94

###

Listed here are molecules together with their documented Selectivity index (SI) 8505C.
Tested on: 8505C (thyroid carcinoma)
Assay: SRB cytotoxicity assay, 8505C
Type: cell-based, human
Settings: SI = EC50 (NIH 3T3)/EC50 (8505C)
Procedure: The cytotoxicity of ursolic and betulinic carboxamides 3–30 was determined in sulforhodamine B (SRB) assays. […] The cytotoxicity of the compounds was evaluated using the sulforhodamine-B (Kiton-Red S, ABCR) micro culture colorimetric assay. […] Tris base solution (200 µL, 10 mM) was added to each well and absorbance was measured at λ = 570 nm using a 96-well plate reader (Tecan Spectra, Crailsheim, Germany). […]
Counter-ions that a name gives are not always drawn.
Answer with a bare number; do not write a unit.

### Prompt Return reported Selectivity index (SI) 8505C; argument: COc1cccc2c1C(=O)c1c(O)c3c(c(O)c1C2=O)C[C@@](O)(C(=O)CO)C[C@@H]3O[C@H]1C[C@H](N)[C@H](O)[C@H](C)O1 [DRC, doxorubicin hydrochloride, reference compound]
### Response 0.05

### Prompt # query: Selectivity index (SI) 8505C of entry CC(=O)O[C@H]1CC[C@@]2(C)C(CC[C@]3(C)C2CC=C2C4[C@@H](C)[C@H](C)CC[C@]4(C(=O)NCCN4CCNCC4)CC[C@]23C)C1(C)C (stereo partly drawn)
### Response 0.41

### Prompt Look at this molecule and give its reported Selectivity index (SI) 8505C. C=C(C)C1CC[C@]2(C(=O)NCCN3CCCC3)CC[C@]3(C)C(CCC4[C@@]5(C)CC[C@H](OC(C)=O)C(C)(C)C5CC[C@]43C)C12 (stereo partly drawn)
### Response 0.75

### Prompt # query: Selectivity index (SI) 8505C of entry C=C(C)C1CC[C@]2(C(=O)NCCN(C)C)CC[C@]3(C)C(CCC4[C@@]5(C)CC[C@H](O)C(C)(C)C5CC[C@]43C)C12 (stereo partly drawn)
### Response 0.75

### Prompt GET /values?readout=Selectivity index (SI) 8505C&item= CC(=O)O[C@H]1CC[C@@]2(C)C(CC[C@]3(C)C2CC=C2C4[C@@H](C)[C@H](C)CC[C@]4(C(=O)NCCOCCN)CC[C@]23C)C1(C)C (stereo partly drawn)
### Response 0.53

### Prompt # query: Selectivity index (SI) 8505C of entry CC(=O)O[C@H]1CC[C@@]2(C)C(CC[C@]3(C)C2CC=C2C4[C@@H](C)[C@H](C)CC[C@]4(C(=O)NCCN(C)C)CC[C@]23C)C1(C)C (stereo partly drawn)
### Response 0.45
